System: HCC 2998
Assay protocol: NCI tumour cell line growth inhibition, 48 h
The source made the active and inactive calls. Rule as the data show it: active = GI50 up to about 1.1 µM and inactive = higher.
Outcomes: active, inactive

>  <Compound>
C=C1C2CC[C@@](C)(O)C2[C@H]2OC(=O)C(=C)[C@@H]2C[C@H]1O (stereo partly specified)

>  <Classification>
inactive

$$$$
>  <Compound>
Cc1ccc2oc(=O)c(-c3ccccc3)nc2c1

>  <Classification>
inactive

$$$$
>  <Compound>
CC(=O)OCC1OC(Nc2ccc3nc(C)n(-c4ccccc4)c(=O)c3c2)C(OC(C)=O)C(OC(C)=O)C1OC(C)=O (stereo unspecified)

>  <Classification>
inactive

$$$$
>  <Compound>
C/C(=N\N=C(/S)N1CCCCCC1)c1cccc[n+]1[O-]

>  <Classification>
inactive

$$$$
>  <Compound>
Cc1cc(NS(=O)(=O)c2ccc(Nc3c4ccccc4nc4c(C(=O)NCCN(C)C)cccc34)cc2)no1

>  <Classification>
inactive

$$$$
>  <Compound>
Cn1nc(-c2ccccc2)nc1[N+](=O)[O-]

>  <Classification>
inactive

$$$$
>  <Compound>
Cc1ccc2c(C)c3ccc4ccccc4c3c[n+]2c1.[O-][Cl+3]([O-])([O-])[O-]

>  <Classification>
inactive

$$$$
>  <Compound>
O=C(O)c1cccc(C(=O)O)c1[S+]([O-])Cc1ccccc1 (stereo unspecified)

>  <Classification>
inactive

$$$$
>  <Compound>
COC(=O)CCc1cc(O)c2c(c1)C(C(=O)OC)C(c1ccc(O)c(O)c1)O2 (stereo unspecified)

>  <Classification>
inactive

$$$$
>  <Compound>
Cc1nc2ccccc2cc1C[N+]12CN3CN(CN(C3)C1)C2

>  <Classification>
inactive

$$$$
>  <Compound>
COc1ccc2cc(CNCCCCCCNCc3ccc4cc(OC)ccc4c3)ccc2c1

>  <Classification>
active

$$$$
>  <Compound>
c1cc2c(ncc3cscc32)s1

>  <Classification>
inactive

$$$$
>  <Compound>
CN(C)CCCN1C(=O)N(CCCN(C)C)c2c3cc(O)ccc3nc3c([N+](=O)[O-])ccc1c23

>  <Classification>
inactive

$$$$
>  <Compound>
COc1cc(OC)c(-c2cc(=O)c3c(OC)c(OC)c(OC)c(OC)c3o2)cc1OC

>  <Classification>
inactive

$$$$
>  <Compound>
COC(=O)C#CC(N)=O

>  <Classification>
inactive

$$$$
>  <Compound>
C=CNC(=O)NC(=O)CSc1nc(=O)c(-c2ccccc2NC(=O)C(F)(F)F)n[nH]1

>  <Classification>
inactive

$$$$
